test: Pharmacokinetics, continuous infusion study in dog; assay type: in vivo; details: plasma, iv, 10 mg/kg/day
property_measured: Vd (L/kg)

* O=C(CC1(O)C(=O)Nc2c(Cl)ccc(Cl)c21)c1ccc(C2CC2)cc1 (single isomer, unassigned) | 5.64

====

conditions: mouse liver microsome, no cofactor, 60 min
Measured Remaining (NCF = 60 min) of individual entries
property_measured: Remaining (NCF = 60 min) (%)

• C[C@]12CC[C@H]3[C@@H](CCC4=CC(=O)CC[C@@]43C)[C@@H]1CC[C@@H]2O [Testosterone, reference compound] = 83.6
• O=C(CC1(O)C(=O)Nc2c(Cl)ccc(Cl)c21)c1ccc(C2CC2)cc1 (single isomer, unassigned) [Cmpd 13] = 85.6
• COc1ccc(C(=O)CC2(O)C(=O)Nc3c(Cl)ccc(Cl)c32)cc1 (single isomer, unassigned) [Cmpd 3] = 97.5
• O=C(CC1(O)C(=O)Nc2c(Cl)ccc(Cl)c21)c1ccc(C2CC2)cc1 (single isomer, unassigned) [Cmpd 14] = 102.0
• COc1ccc(C(=O)CC2(O)C(=O)Nc3c(Cl)ccc(Cl)c32)cc1 (single isomer, unassigned) [Cmpd 2] = 90.2

From: patent US9895352B2
